B1: CDC25B (parent)
chain: ELKTFRLKTRSWAGERSRRELCSR

# Variants of: B1
# ASSAY PROCEDURE: protein stability index of a GFP-peptide fusion (GPS, HEK-293T) (PSI 1-6); higher = more stable;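 further: lentivirally expressed fusions sorted by FACS into six bins by GFP to DsRed ratio, PSI derived from sequencing read proportions per bin multiplied by bin number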
# TEST PARAMETERS: c terminus: a fixed tail appended
Output true (1) for protein stability index not less than 3; output false (0) otherwise.

W12I: true (1)
K3H: true (1)
R6K: false (0)
L21T: true (1)
R18S: true (1)
E1V: true (1)

State whether the measured protein stability index reaches 3, counting equality as reaching it, for R18F false (0)

State whether the measured protein stability index reaches 3, counting equality as reaching it, for T9N true (1)

State whether the measured protein stability index reaches 3, counting equality as reaching it, for A13H true (1)
